Each entry below lists one item and its recorded GI50 value.
# Test system: T-Rex 293 cell line SC3 cells lacking increased expression of androgen receptor protein
# assay_procedure: Cellular growth inhibition, T-Rex 293 SC3 cells without doxycycline, CellTiter-Glo
# Assay type: cell-based
# recorded_conditions: 72 h, T-Rex 293 SC3 cells not exposed to doxycycline, CellTiter-Glo 2.0
reported_property: GI50

- Cc1sc2c(c1C)C(c1ccc(C[C@H]3C[C@H]([C@@H]4CCCN(c5ncc(C(=O)N[C@H]6C(C)(C)[C@H](Oc7ccc(C#N)c(Cl)c7)C6(C)C)cn5)C4)C3)cc1)=N[C@@H](Cc1ncco1)c1nnc(C)n1-2: < 0.5 µM
- Cc1sc2c(c1C)C(c1ccc(CN3CC4(CCCN(c5ncc(C(=O)N[C@H]6C(C)(C)[C@H](Oc7ccc(C#N)c(Cl)c7)C6(C)C)cn5)C4)C3)cc1)=NC(Cc1ncco1)c1nnc(C)n1-2 (stereo partly drawn): 1.5 to 3 µM
- Cc1sc2c(c1C)C(c1ccc(-c3ncc(C4CCN(c5ncc(C(=O)N[C@H]6C(C)(C)[C@H](Oc7ccc(C#N)c(Cl)c7)C6(C)C)cn5)CC4)o3)cc1)=N[C@@H](Cc1ncco1)c1nnc(C)n1-2: > 3 µM
- Cc1sc2c(c1C)C(c1ccc(C(=O)N(C)CCCc3ncc(C(=O)N[C@H]4C(C)(C)[C@H](Oc5ccc(C#N)c(Cl)c5)C4(C)C)cn3)cc1)=N[C@@H](Cc1ncco1)c1nnc(C)n1-2: > 3 µM
- Cc1sc2c(c1C)C(c1ccc(OC3CC4(CCN(c5ncc(C(=O)N[C@H]6C(C)(C)[C@H](Oc7ccc(C#N)c(Cl)c7)C6(C)C)cn5)CC4)C3)cc1)=N[C@H](Cc1ncco1)c1nnc(C)n1-2: > 3 µM
- Cc1sc2c(c1C)C(c1ccc(CN(C)C(=O)CN(C)c3ncc(C(=O)N[C@H]4C(C)(C)[C@H](Oc5ccc(C#N)c(Cl)c5)C4(C)C)cn3)cc1)=N[C@@H](Cc1ncco1)c1nnc(C)n1-2: > 3 µM
- Cc1sc2c(c1C)C(c1ccc(OC[C@H]3C[C@]4(CCCN(c5ncc(C(=O)N[C@H]6C(C)(C)[C@H](Oc7ccc(C#N)c(Cl)c7)C6(C)C)cn5)C4)C3)cc1)=N[C@@H](Cc1ncco1)c1nnc(C)n1-2: 1.5 to 3 µM
- Cc1sc2c(c1C)C(c1ccc(Cl)cc1)=N[C@@H](CC(=O)NCCOC1CCN(c3ncc(C(=O)N[C@H]4C(C)(C)[C@H](Oc5ccc(C#N)c(Cl)c5)C4(C)C)cn3)CC1)c1nnc(C)n1-2: 0.5 to 1.5 µM
- Cc1sc2c(c1C)C(c1ccc(N3CCC4(CC3)CCN(c3ncc(C(=O)N[C@H]5C(C)(C)[C@H](Oc6ccc(C#N)c(Cl)c6)C5(C)C)cn3)CC4)cc1)=N[C@@H](Cc1ncco1)c1nnc(C)n1-2: > 3 µM

Reference source: patent US20260062422A1
